This collection of values is drawn from PubChem BioAssay (NCI).

Below is a list of entries, each paired with its recorded GI50 value.
System: OVCAR-8 ovarian
Assay: NCI tumour cell line growth inhibition, 48 h

Consider the reported GI50 for these molecules:
{"columns": ["molecule", "readout label", "observed measurement"],
 "data": [
  ["COc1cc(/C=C2\\CC3C4CC=C5C[C@@H](N6CCCC6)CC[C@]5(C)C4CC[C@]3(C)[C@H]2OC(C)=O)ccc1OCCCn1ccnc1 (stereo partly drawn)", "GI50", "774 nM"],
  ["O=C1C=CC(=O)N1c1ccc2ccccc2c1", "GI50", "19200 nM"],
  ["CCc1n(Cc2ccc3ccccc3c2)cc[n+]1Cc1ccc2ccccc2c1", "GI50", "760 nM"],
  ["C=CC(=O)N1CCN(c2nc(OC[C@@H]3CCCN3C)nc3c(F)c(-c4nc(N)cc(C)c4C(F)(F)F)c(Cl)cc23)[C@@H](C)C1", "GI50", "1640 nM"],
  ["Cc1nc2sc(C(=O)Nc3cccc4c3OCCO4)c(N)c2cc1C(C)O (stereo not drawn)", "GI50", "6480 nM"]
]}

Record CC(C)C[C@H](NC(=O)[C@@H](N)Cc1cccc2ccccc12)B(O)O . Reported GI50: 1620 nM

Record COC(=O)c1cc2c3cc(Cl)ccc3[nH]c2c2ncccc12 . Reported GI50: > 100000 nM

Record CCn1cnc(C[C@H](NC(=O)[C@@H](NC(=O)Nc2cc(C(F)(F)F)cc(C(F)(F)F)c2)C(C)(C)C)C(=O)OC)c1 . Reported GI50: > 10000 nM
